Test system: HeLa-APL
Experiment: SRB colorimetric assay of cell growth and viability, HeLa-APL
Type: cell-based, human
Particulars: HELA-APL; 48 hours exposure; read-out: LC50 HELA-APL
Where a SMILES comes first, the peptide text is derived from it. Bridges are numbered along the chain shown (N, C = ends). [ ]: non-standard residue; d: D form. The star is where a group is joined. d(aIle) = CC[C@H](C)[C@@H](N)C(=O)O; d(aThr) = C[C@@H](O)[C@@H](N)C(=O)O; Hexanoyl(5-Me) = CC(C)CCCC(=O)*; Orn = NCCC[C@H](N)C(=O)O; Dhb = C/C=C(\N)C(=O)O
Measured Quantity: CC50

Ask | Give the reported value of CC50 for this record: C/C=C1\NC(=O)[C@H](Cc2ccccc2)NC(=O)[C@@H](C(C)C)NC(=O)[C@@H]([C@@H](C)CC)NC(=O)[C@H](NC(=O)[C@H](NC(=O)[C@H](CCCN)NC(=O)[C@H]2CCCN2C(=O)[C@H](NC(=O)[C@@H](NC(=O)[C@H](CCC(=O)O)NC(=O)[C@H](NC(=O)CCCC(C)C)C(C)C)C(C)C)C(C)C)[C@@H](C)CC)[C@@H](C)OC(=O)[C@H](C(C)C)NC1=O [Compound 115, [Glu^12]-KF] ({Hexanoyl(5-Me)}-[dV]EV[dV][dP][Orn][d(aIle)][d(aThr)][d(aIle)][dV]F[Dhb]V; ester 8-C)
Reply | 6.64 µM

---

Parameter: CC50. Scope: all listed entries.
System: HeLa-APL
Experiment: SRB colorimetric assay of cell growth and viability, HeLa-APL
Assay type: cell-based, human
Particulars: HELA-APL; 48 hours exposure; read-out: LC50 HELA-APL
Where a SMILES comes first, the peptide text is derived from it. Bridges are numbered along the chain shown (N, C = ends). [ ]: non-standard residue; d: D form. The star is where a group is joined. 2Nal = N[C@@H](Cc1ccc2ccccc2c1)C(=O)O; d(aIle) = CC[C@H](C)[C@@H](N)C(=O)O; d(aThr) = C[C@@H](O)[C@@H](N)C(=O)O; Hexanoyl(5-Me) = CC(C)CCCC(=O)*; Orn = NCCC[C@H](N)C(=O)O; Dhb = C/C=C(\N)C(=O)O

Example entries and their recorded answers appear below.
C/C=C1\NC(=O)[C@H](Cc2ccc3ccccc3c2)NC(=O)[C@@H](C(C)C)NC(=O)[C@@H]([C@@H](C)CC)NC(=O)[C@H](NC(=O)[C@H](NC(=O)[C@H](CCCN)NC(=O)[C@H]2CCCN2C(=O)[C@H](NC(=O)[C@@H](NC(=O)[C@@H](NC(=O)[C@H](NC(=O)CCCC(C)C)C(C)C)[C@@H](C)O)C(C)C)C(C)C)[C@@H](C)CC)[C@@H](C)OC(=O)[C@H](C(C)C)NC1=O [Compound 85, [Nal^3]-KF] ({Hexanoyl(5-Me)}-[dV]TV[dV][dP][Orn][d(aIle)][d(aThr)][d(aIle)][dV][2Nal][Dhb]V; ester 8-C) :: 0.427 µM
C/C=C1\NC(=O)[C@H](Cc2ccccc2)NC(=O)[C@@H](C(C)C)NC(=O)[C@@H]([C@@H](C)CC)NC(=O)[C@H](NC(=O)[C@H](NC(=O)[C@H](CCCN)NC(=O)[C@H]2CCCN2C(=O)[C@H](NC(=O)[C@@H](NC(=O)[C@@H](NC(=O)[C@@H](CCCN)NC(=O)CCCC(C)C)[C@@H](C)O)C(C)C)C(C)C)[C@@H](C)CC)[C@@H](C)OC(=O)[C@H](C(C)C)NC1=O [Compound 118, [D-Orn^13]-KF] :: 6.7 µM

Now examine the next entry.
Ask | Give the reported value of CC50 for this record: C/C=C1\NC(=O)[C@H](Cc2ccccc2)NC(=O)[C@@H](C(C)C)NC(=O)[C@@H]([C@@H](C)CC)NC(=O)[C@H](NC(=O)[C@H](NC(=O)[C@H](CCCN)NC(=O)[C@@H]2CCCN2C(=O)[C@H](NC(=O)[C@@H](NC(=O)[C@@H](NC(=O)[C@H](NC(=O)CC[C@@H](C)CC)C(C)C)[C@@H](C)O)C(C)C)C(C)C)[C@@H](C)CC)[C@@H](C)OC(=O)[C@H](C(C)C)NC1=O [Compound 59, [Pro^9, (4S)-MeHex^14]-KF]
Reply | ≥ 6.76 µM
